Recorded photoluminescence quantum yield values for a group of molecules are listed next.
experiment: photoluminescence quantum yield (fraction); solvent given as SMILES; details: in CS(C)=O
Kindly provide the number alone.

Cc1ccc(-c2cc(/C=C/c3ccc(N(c4ccccc4)c4ccccc4)cc3)c(C#N)c(N3CCCCC3)c2)cc1	0.58
CN(C)c1ccc(/C=C2\CC/C(=C\c3ccc(C#N)cc3)C2=O)cc1	0.0074

**Query** Returns the measured photoluminescence quantum yield for the input molecule. Input: O=c1oc2ccc(Br)cc2cc1-c1cc2cc(Br)ccc2o1
**Result** 0.2

----------
experiment: photoluminescence quantum yield (fraction); solvent given as SMILES; settings: in O
measured_quantity: photoluminescence quantum yield

Worked examples follow.
O=C(O)CC[N+]1=c2cc3c(cc2CCC1)=Cc1c(c2cc4c5c(c2oc1=O)CCCN5CCC4)O3	0.003
CN(CC(O)c1cccc(O)c1)c1ccc([N+](=O)[O-])c(C2CC(c3cccc4ccccc34)=NN2c2ccccc2)c1 (centres undefined)	0.16
Cn1c2ccc(S(=O)(=O)O)cc2c(=O)c2cc(S(=O)(=O)O)ccc21	0.76

Now, please, on to the next compound.
**Query** Returns the measured photoluminescence quantum yield for the input compound. Input: Cn1cc(/C=C/C(=O)c2ccccc2)c2ccccc21
**Result** 0.12

----------
assay: photoluminescence quantum yield (fraction); solvent given as SMILES; details: in C1CCOC1
Recorded photoluminescence quantum yield values for a group of compounds are listed next.
Kindly provide the number alone.

Worked examples follow.
COc1cc2c(cc1-c1ccncc1)Cc1c3c(c4c(c1-2)-c1cc(OC)c(-c2ccncc2)cc1C4)C(=O)N(CCC(C)C)C3=O	0.42
CCCCCCCCOc1ccc(C#Cc2ccc(C#Cc3ccc(OCCCCCCCC)c(OCCCCCCCC)c3)c3nc4c5ccccc5c5ccccc5c4nc23)cc1OCCCCCCCC	0.18
COc1cc2cc(OC)c(C#Cc3ccc([N+](=O)[O-])cc3)cc2cc1C#Cc1ccc([N+](=O)[O-])cc1	0.009
O=C(c1ccc(N(c2ccccc2)c2ccccc2)cc1)[C@H]1[C@H](c2cccs2)C[C@](O)(c2ccccn2)C[C@]1(O)c1ccccn1	0.24
C1=[N+]2N=C(c3ccccc3)O[B-]2(c2ccc([B-]34OC(c5ccccc5)=N[N+]3=Cc3c(ccc5ccccc35)O4)cc2)Oc2ccc3ccccc3c21 (stereo unspecified)	0.002

**Query** Returns the measured photoluminescence quantum yield for the input compound. Input: CC(=O)c1ccc2ccc3cccc4ccc1c2c34
**Result** 0.002

**Query** Another: CN(C)c1ccc(C2=Nc3sc4cc(Cl)ccc4[n+]3[B-](F)(F)O2)cc1
**Result** 0.74

**Query** Another: CC1(C)CCc2c(c3ccccc3c3nc4c5c(c6ccccc6c4nc23)OC(C)(C)CC5)O1
**Result** 0.34

**Query** Another: COc1ccc(C2CC(c3ccc(O)cc3)=NN2c2ccc(S(N)(=O)=O)cc2)cc1 (stereo unspecified)
**Result** 0.78

**Query** Another: N#Cc1coc2ccccc2c1=O
**Result** 0.035

**Query** Another: c1ccc(-c2ccc(-c3ccccc3)s2)cc1
**Result** 0.07

**Query** Another: Cc1ccc(C2=C3C=CC(C#Cc4ccccc4)=[N+]3[B-](F)(F)n3c(Cl)ccc32)cc1
**Result** 0.84

----------
assay: photoluminescence quantum yield (fraction); solvent given as SMILES; conditions: in CS(C)=O
Please use Condition met whenever photoluminescence quantum yield is not below 0.04, and Condition not met whenever it is.

Cc1cc(C)c(B(c2ccc(-c3nc4c5ccccc5c5ccccc5c4[nH]3)cc2)c2c(C)cc(C)cc2C)c(C)c1	Condition met
CC(C)(C)c1ccc2c(c1)c1cc(C(C)(C)C)ccc1n2-c1ccc2oc3nc4oc5ccc(C(F)(F)F)cc5c4cc3c2c1	Condition met
CCCCN1c2ccccc2Sc2cc(/C=C/C3=Nc4ccc5ccccc5c4C3(C)C)ccc21	Condition met

**Query** Could you verify whether the entry N#Cc1coc2ccccc2c1=O shows photoluminescence quantum yield of no less than 0.04?
**Result** Condition not met

**Query** Another: C[N+]1=C(/C=C/C=C2/N(CCC[N+](C)(C)C)c3ccc(Br)cc3C2(C)C)C(C)(C)c2ccccc21
**Result** Condition met

**Query** Another: N#C/C(=C\c1ccncc1)c1nc(-c2ccccc2)cs1
**Result** Condition met

**Query** Another: CCC1=C(C)C2=Cc3cc4c(cc3B(O)N2C1=O)OCO4
**Result** Condition met

**Query** Another: CCOC(=O)/C(C#N)=C\c1ccc2c(c1)c1ccccc1n2-c1ccc(OC)cc1
**Result** Condition not met

**Query** Another: COc1cc2c(cc1/C=C/C(=C(C#N)C#N)c1ccccc1)c1ccccc1n2C
**Result** Condition not met

----------
experiment: photoluminescence quantum yield (fraction); solvent given as SMILES; conditions: in c1ccccc1
Assign labels as follows, please: Met for photoluminescence quantum yield below 0.5; Not met for photoluminescence quantum yield equal to or exceeding 0.5.

Reference set, count: 3
COc1ccc(C#Cc2ccc(C#Cc3ccc(C#Cc4ccccc4C#N)cc3C#N)cc2C#N)cc1	Not met
Cc1ccc(-c2cc(-c3ccc(N(C)C)cc3)c3c(N)nc(N4CCCC4)c(C#N)c3n2)cc1	Met
CC1(C)CCc2c(c3ccccc3c3nc4c(nc23)c2c(c3ccccc34)OC(C)(C)CC2)O1	Met

**Query** photoluminescence quantum yield strictly < 0.5 for this compound? CCOC(=O)CN(CC(=O)OCC)c1ccc(-c2cc(-c3cccnc3)nc(-c3cccnc3)c2)cc1
**Result** Not met

**Query** Another: O=C(c1ccc(N(c2ccccc2)c2ccccc2)cc1)[C@H]1[C@H](c2cccs2)C[C@](O)(c2ccccn2)C[C@]1(O)c1ccccn1
**Result** Not met

**Query** Another: CN(C)c1ccc2ccc3oc(=O)c(-c4ccccc4)nc3c2c1
**Result** Met

**Query** Another: CC(C)[Si]1(C(C)C)c2cc(C=O)ccc2-c2ccc(N(c3ccccc3)c3ccccc3)cc21
**Result** Not met

**Query** Another: Nc1ccc2nc(-c3ccccc3)c(=O)oc2c1
**Result** Not met

**Query** Another: COc1cc(/C=C/C(=O)CC(=O)/C=C/c2ccc(O)c(OC)c2)ccc1O
**Result** Met

**Query** Another: CCOC(=O)CSc1nc2c(c(C#N)c1C#N)CCCCCC2
**Result** Met

**Query** Another: O=C1c2ccccc2-c2ccc(N3CCOCC3)c3cccc1c23
**Result** Not met

**Query** Another: CN(C)c1ccc(/C=C/C=C2\CC/C(=C\c3ccc(N(C)C)cc3)C2=O)cc1
**Result** Met

----------
experiment: photoluminescence quantum yield (fraction); solvent given as SMILES; details: in C1CCOC1
Recorded photoluminescence quantum yield values for a group of molecules are listed next.
Kindly provide the number alone.

CN(C)c1ccc(C(=Cc2ccc(C=O)cc2)c2ccc(N(C)C)cc2)cc1	0.059
COC(=O)c1ccc(/C=C/C(F)(F)F)c(N)c1	0.74
C(=C\c1nc2ccccc2s1)/c1ccc(-c2nc3c4cccnc4c4ncccc4c3[nH]2)cc1	0.33
COc1ccc(C2=C3C=CC(C)=[N+]3[B-](F)(F)n3c(C)ccc32)cc1	0.36

Now, please, on to the next molecule.
**Query** Returns the measured photoluminescence quantum yield for the input molecule. Input: CSc1sc(C(C)=O)c2nn[nH]c(=O)c12
**Result** 0.015

----------
Recorded photoluminescence quantum yield values for a group of molecules are listed next.
assay: photoluminescence quantum yield (fraction); solvent given as SMILES; conditions: in ClCCl
Kindly provide the number alone.

Worked examples follow.
COc1cccc2c1oc(=O)c1c(=O)oc3cc(O)ccc3c12	0.004
c1csc(-c2ccc3c4ccc(-c5cccs5)cc4n(-c4cccs4)c3c2)c1	0.21
c1ccc(C2=C(c3ccccc3)c3cccc4c3c(cc3nc5cc(-c6ccccc6)c(-c6ccccc6)cc5nc34)O2)cc1	0.86
CC(C)(C)NC(=O)c1cc2ccccc2c2ccc3c4ccccc4c4ccccc4c3c12	0.06

**Query** Returns the measured photoluminescence quantum yield for the input molecule. Input: c1csc(-c2ccc(-c3cccs3)s2)c1
**Result** 0.05

**Query** Another: O=c1oc2ccccc2c2c1c(=O)oc1c3ccccc3cc(O)c12
**Result** 0.29

**Query** Another: Clc1ncc(-c2c3ccccc3c(-c3cnc(Cl)nc3)c3ccccc23)cn1
**Result** 0.78

**Query** Another: COC(=O)c1cc(=O)n(C)c2cc(-c3cccc(OC)c3)sc12
**Result** 0.48

**Query** Another: O=P1(c2ccccc2)C2=C(c3ccccc31)S(=O)(=O)c1ccccc12 (centres undefined)
**Result** 0.98

**Query** Another: C[Si]1(C)C(c2ccccc2)=Cc2ccccc21
**Result** 0.55

**Query** Another: COc1ccc2c3cccc4c(OC)ccc(c5cccc1c52)c43
**Result** 0.94

**Query** Another: c1ccc(N(c2ccccc2)c2ccc(-c3ccc4c(c3)C3(c5cc(-c6ccc(N(c7ccccc7)c7ccccc7)cc6)ccc5O4)c4ccccc4-c4ccccc43)cc2)cc1
**Result** 0.47
